Target: plasma kallikrein (Homo sapiens, UniProt P03952)
Sequence (P03952 20-638): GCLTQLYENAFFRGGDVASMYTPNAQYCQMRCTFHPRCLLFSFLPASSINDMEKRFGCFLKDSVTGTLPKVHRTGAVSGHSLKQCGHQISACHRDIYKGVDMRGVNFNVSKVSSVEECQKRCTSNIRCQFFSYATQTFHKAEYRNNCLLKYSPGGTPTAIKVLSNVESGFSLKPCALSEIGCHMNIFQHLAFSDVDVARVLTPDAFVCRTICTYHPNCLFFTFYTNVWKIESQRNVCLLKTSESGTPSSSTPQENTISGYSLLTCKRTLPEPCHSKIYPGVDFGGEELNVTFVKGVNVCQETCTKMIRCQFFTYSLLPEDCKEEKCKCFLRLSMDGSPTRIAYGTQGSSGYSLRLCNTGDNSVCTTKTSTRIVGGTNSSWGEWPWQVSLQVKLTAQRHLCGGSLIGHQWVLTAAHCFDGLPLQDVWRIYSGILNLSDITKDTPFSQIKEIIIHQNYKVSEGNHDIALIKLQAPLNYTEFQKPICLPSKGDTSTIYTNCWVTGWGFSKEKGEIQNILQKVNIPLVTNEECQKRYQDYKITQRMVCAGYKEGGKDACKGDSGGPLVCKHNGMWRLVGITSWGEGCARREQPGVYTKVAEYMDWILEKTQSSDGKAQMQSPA
Experiment: biochemical inhibition assay of plasma kallikrein
pIC50: −log10 of the molar value.
reportedProperty: pIC50

Cc1cc(N)nc(C)c1CNC(=O)c1ccnc(Cc2ccc3ncc(Cl)cc3c2)c1 | 8.57
